All values here come from PubChem BioAssay (NCI).

# Test system: SN12C renal
# protocol_notes: NCI tumour cell line growth inhibition, 48 h
measure: TGI

>>> result("C/C(=N\\NC(=S)N(C)C)c1nc2ncccc2[nH]1")
"> 100 µM"

Need TGI, item N#Cc1cc([N+](=O)[O-])ccc1NC(=O)/C(=N\NC(=O)c1ccncc1)C(c1cnc2ccc([N+](=O)[O-])cc2n1)[N+](=O)[O-] (centres undefined)
3.71 µM

Need TGI, item CCC1CCN=C(NS(=O)(=O)c2cc(C)c(Cl)cc2S)N1 (centres undefined)
> 100 µM

Need TGI, item N#Cc1ccc(CSC2=C(c3ccc(Cl)cc3)S/C(=C3\SC(SCc4ccc(C#N)cc4)=C(c4ccc(Cl)cc4)S3)S2)cc1
> 100 µM

Need TGI, item COc1cc(O)c2c(c1)O[C@@H]1OCC[C@H]21
> 100 µM

Need TGI, item Cc1nn2c(nc1=O)sc1ccc3ccccc3c12
> 100 µM

Need TGI, item O=[N+]([O-])c1ccc(C2CC(c3ccccc3)=Nc3ccccc3S2)cc1 (centres undefined)
> 100 µM

Need TGI, item COC(=O)C1=C(OC(=O)c2ccccc2)C(C(=O)OC)[C@@]2(O)[C@@H](C(=O)OC)[C@H](C)C[C@@H]1[C@@H]2C(=O)OC (some centres undefined)
> 100 µM

Need TGI, item CCCN(CCC)C(=S)N/N=C/c1ccccn1
0.678 µM
